experiment: in vitro; format: in vitro ADME; conditions: human, Caco-2
Simple rule here: Papp B→A at 90 min less than 2 ×10⁻⁶ cm/s is Met, otherwise Not met.

[
  {
    "compound": "N#C[C@@]1(c2ccc3c(N)ncnn23)O[C@H](COC(=O)C[C@H]2CC[C@H](N)CC2)[C@@H](O)[C@H]1O",
    "assigned_class": "Met"
  }
]

Field: below-cutoff. Rule: recorded Papp B→A at 90 min strictly less than 2 ×10⁻⁶ cm/s. Subject: CC(C)CC(=O)OC[C@H]1O[C@@](C#N)(c2ccc3c(N)ncnn23)[C@H](O)[C@@H]1OC(=O)C(C)C Not met

Same question, N#C[C@@]1(c2ccc3c(N)ncnn23)O[C@H](COC(=O)CC2CCC(C(F)(F)F)CC2)[C@@H](O)[C@H]1O (stereo partly shown) this time Not met

Field entry: C[C@H](C(=O)OC[C@H]1O[C@@](C#N)(c2ccc3c(N)ncnn23)[C@H](O)[C@@H]1O)C1CCCCC1 Not met

Then N#C[C@@]1(c2ccc3c(N)ncnn23)O[C@H](COC(=O)CC2CC2)[C@@H](O)[C@H]1O ? Met

// query: CC(=O)O[C@H]1[C@@H](O)[C@](C#N)(c2ccc3c(N)ncnn23)O[C@@H]1COC(=O)CC1CCCCC1 Not met

Item: CC(C)[C@H](N)C(=O)O[C@H]1[C@@H](O)[C@](C#N)(c2ccc3c(NC(=O)c4ccccc4)ncnn23)O[C@@H]1CO Not met
